Tested on: BXPC-3
Assay: Antitumor activity against human BXPC-3 cells incubated for 48 to 72 hrs by MTS Assay
Format: functional, cell-based
The reader will find reported IC50 values listed item by item below.
Use nM as the unit, but write only the number.

CCCC(=O)N[C@H](C)C(=O)O[C@H]1C/C=C/C=C/C=C/[C@H](OC)CC(=O)Nc2cc(O)cc(c2)CC/C=C(/C)[C@H](O)[C@H]1C | 2040

Problem: // query IC50 value for entry `CO[C@H]1/C=C/C=C/C=C/C[C@H](OC(=O)[C@@H](C)NC(=O)CCCC(C)C)[C@H](C)[C@@H](O)/C(C)=C\CCc2cc(O)cc(c2)NC(=O)C1`
Result: 100

====

Assay: Cytotoxicity against human HAF cells
Assay type: toxicity, cell-based, Fibroblast
Details: HAF cells (fibroblasts)
observable: IC50 (nM)
Express your answer in nM, writing the number without its unit.

Problem: Could you share which IC50 value was measured for CO[C@H]1/C=C/C=C/C=C/C[C@H](OC(=O)[C@@H](C)NC(=O)C2CCCCC2)[C@H](C)[C@@H](O)/C(C)=C\CCc2cc(O)cc(c2)NC(=O)C1 [TRIENOMYCIN A] ?
Result: 8

====

System: HeLa
Assay: Antitumor activity against human HeLa cells
Assay type: functional, cell-based
A collection of compounds and their measured pIC50
Expect pIC50 as a plain number equal to -log10 of the molar concentration.

CO[C@H]1/C=C/C=C/C=C/C[C@H](OC(=O)C2(NC(=O)C3=CCCCC3)CC2)[C@H](C)[C@@H](O)/C(C)=C\CCc2cc3c(c(c2O)NC(=O)C1)SCC(=O)N3 | 7.30

Problem: Give HeLa pIC50 for `CO[C@H]1/C=C/C=C/C=C/C[C@H](OC(=O)[C@@H](C)NC(=O)C2CCCCC2)[C@H](C)[C@@H](O)/C(C)=C\CCc2cc(O)c(SC)c(c2O)NC(=O)C1`
Result: 7.82

Problem: Can you handle `CO[C@H]1/C=C/C=C/C=C/C[C@H](OC(=O)C2(NC(=O)C3=CCCCC3)CC2)[C@H](C)[C@@H](O)/C(C)=C\CCc2c(O)c(cc3c2SCC(=O)N3)NC(=O)C1` next?
Result: 6.52

====

Test system: L5178Y
Assay: Cytotoxicity against mouse L5178Y
Assay type: toxicity, cell-based
Please note: MIC exactly at 1 µM is Not fulfilled. Only values below 1 µM get Fulfilled.

Reference set (4 entries):
CO[C@H]1/C=C/C=C/C=C/C[C@H](O)[C@H](C)[C@@H](O)/C(C)=C\CCC2=CC(=O)C=C(NC(=O)C1)C2=O | Not fulfilled
CO[C@H]1/C=C/C=C/C=C/C[C@H](OC(=O)[C@@H](C)NC(=O)C2CCCCC2)[C@H](C)[C@@H](O)/C(C)=C\CCC2=CC(=O)C=C(NC(=O)C1)C2=O | Not fulfilled
COc1cc2c(O)c(c1)NC(=O)C[C@@H](OC)/C=C/C=C/C=C/C[C@H](OC(=O)[C@@H](C)NC(=O)C1CCCCC1)[C@H](C)[C@@H](O)/C(C)=C\CC2 | Fulfilled
CO[C@H]1/C=C/C=C/C=C/C[C@H](OC(=O)[C@@H](C)NC(=O)C2CCCC(O)C2)[C@H](C)[C@@H](O)/C(C)=C\CCc2cc(O)cc(c2O)NC(=O)C1 (stereo partly specified) | Not fulfilled

Please look at the following molecule next.
Problem: Given the entry `CO[C@H]1/C=C/C=C/C=C/C[C@H](O)[C@H](C)[C@@H](O)/C(C)=C\CCc2cc(O)cc(c2O)NC(=O)C1` , would its reported MIC be below 1 µM?
Result: Not fulfilled

====

Test system: HeLa
Assay: Antitumor activity against human HeLa cells assessed as cell growth inhibition incubated for 5 days by MTT assay
Assay type: functional, cell-based
Settings: 120 h
observable: pIC50
Lab note — pIC50 values are minus log10 of concentrations in M.

CO[C@H]1/C=C/C=C/C=C/C[C@H](O)[C@H](C)[C@@H](OC(=O)[C@@H](C)NC(=O)C2CCCCC2)/C(C)=C\CCC2=C(O)C(=O)C=C(NC(=O)C1)C2=O | 6.35

Lab note: next molecule to report on.
Problem: # lookup: pIC50 of `CO[C@H]1/C=C/C=C/C=C/C[C@H](OC(=O)[C@@H](C)NC(=O)C2CCCCC2)[C@H](C)[C@@H](O)/C(C)=C\CCC2=C(O)C(=O)C=C(NC(=O)C1)C2=O`
Result: 7.15

====

Assay: Antiproliferative activity against human U87 cells overexpressing miR-9 assessed as cell viability incubated for 48 hrs by Cell Counting Kit-8 assay
Assay type: functional, cell-based, U-87MG ATCC
Conditions: U-87 MG
observable: IC50

CO[C@H]1/C=C/C=C/C=C/C[C@H](OC(=O)[C@@H](C)NC(=O)C2CCCCC2)[C@H](C)[C@@H](O[C@@H]2O[C@H](CO)[C@@H](O)[C@H](O)[C@H]2O)/C(C)=C\CCc2cc(O)cc(c2O)NC(=O)C1 | ≥ 2.02 µM

Problem: What does the data say about its IC50? Entry: `CO[C@@H]1CC(=O)Nc2c(O)c3cc4c2[C@H]1[C@@H](/C=C/C=C/C[C@H](O)[C@H](C)[C@@H](OC(=O)[C@@H](C)NC(=O)C1CCCCC1)/C(C)=C\CC3)O4`
Result: > 10 µM

====

Tested on: PANC-1
Test: Antitumor activity against human PANC-1 cells assessed as cell growth inhibition incubated for 48 hrs by CCK-8 assay
Type: functional, cell-based
Settings: PANC-1, 48 h
pIC50: −log10 of the molar value.
compounds and their reported pIC50

Solved entries (count: 2):
CO[C@@H]1CC(=O)Nc2c(O)c3cc4c2[C@H](/C=C/C=C/C[C@H](OC(=O)[C@@H](C)NC(=O)C2=CCCCC2)[C@H](C)[C@@H](O)/C(C)=C\CC3)[C@H]1O4 | < 5.00
CO[C@@H]1CC(=O)Nc2c(O)c3cc4c2[C@H](/C=C/C=C/C[C@H](OC(=O)[C@@H](C)NC(=O)CC(C)C)[C@H](C)[C@@H](O)/C(C)=C\CC3)[C@H]1O4 | < 5.00

// switching to the query compound
Problem: Which pIC50 is reported with PANC-1 for this entry: `CO[C@@H]1CC(=O)Nc2c(O)c3cc4c2[C@H](/C=C/C=C/C[C@H](OC(=O)[C@@H](C)NC(=O)CCC(C)C)[C@H](C)[C@@H](O)/C(C)=C\CC3)[C@H]1O4` ?
Result: < 5.00

====

Tested on: SW1990
Experiment: Antitumor activity against human SW1990 cells assessed as cell growth inhibition incubated for 48 hrs by CCK-8 assay
Type: functional, cell-based
Details: SW1990, 48 h
Items are presented alongside their recorded IC50.

Illustrative cases are given below, each with its answer.
CO[C@@H]1CC(=O)Nc2c(O)c3cc4c2[C@H](/C=C/C=C/C[C@H](OC(=O)[C@@H](C)NC(=O)C2=CCCCC2)[C@H](C)[C@@H](O)/C(C)=C\CC3)[C@H]1O4 | > 10 µM
CO[C@@H]1CC(=O)Nc2c(O)c3cc4c2[C@H](/C=C/C=C/C[C@H](OC(=O)[C@@H](C)NC(=O)CCC(C)C)[C@H](C)[C@@H](O)/C(C)=C\CC3)[C@H]1O4 | > 10 µM

Now, please, on to the next compound.
Problem: What value of IC50 has been recorded for this entry: `CO[C@@H]1CC(=O)Nc2c(O)c3cc4c2[C@H](/C=C/C=C/C[C@H](OC(=O)[C@@H](C)NC(=O)CC(C)C)[C@H](C)[C@@H](O)/C(C)=C\CC3)[C@H]1O4`
Result: > 10 µM

====

Test system: BXPC-3
Test: Antitumor activity against human BXPC-3 cells incubated for 48 to 72 hrs by MTS Assay
Type: functional, cell-based
# key: entry, value: IC50

Before answering, review these 2 worked examples.
CO[C@H]1/C=C/C=C/C=C/C[C@H](O)[C@H](C)[C@@H](OC(=O)[C@@H](C)NC(=O)C(C)C)/C(C)=C\CCc2cc(O)cc(c2)NC(=O)C1 | > 10 µM
CO[C@H]1/C=C/C=C/C=C/C[C@H](O)[C@H](C)[C@@H](OC(=O)[C@@H](C)NC(=O)C2CCCCC2)/C(C)=C\CCc2cc(O)cc(c2)NC(=O)C1 | > 10 µM

Problem: Which IC50 is listed for `C/C=C(\C)C(=O)N[C@H](C)C(=O)O[C@H]1C/C=C/C=C/C=C/[C@H](OC)CC(=O)Nc2cc(O)cc(c2)CC/C=C(/C)[C@H](O)[C@H]1C` ?
Result: ≥ 10 µM
